experiment: protein stability index of a GFP-peptide fusion (yeast GPS) (PSI 1-4); higher = more stable; sorted into four equal gates, so the index is relative within each strain; settings: pdr5∆
metric: protein stability index
Please respond with just the number, no unit label.

**Query** Supply measured protein stability index of NKGRAVYINPSGEKIDF [BRR2] in your reply.
**Result** 2.76

**Query** Supply measured protein stability index of TWIHSEIEELKSSIQNL [SMC3] in your reply.
**Result** 2.3

**Query** Supply measured protein stability index of LLTNSNNGSSNNNTQNT [SNF5] in your reply.
**Result** 3.25

**Query** Supply measured protein stability index of SASSLVITALKEPPRDR [RPL12A] in your reply.
**Result** 2.97

**Query** Supply measured protein stability index of RNNFLAENSHTQPKATS [PUP1] in your reply.
**Result** 3.1

**Query** Supply measured protein stability index of NSRGKFDDACNQIWNIA [SSN2] in your reply.
**Result** 3.01

**Query** Supply measured protein stability index of LKKRYDLSYNFNVHEVP [YMR129W/POM152] in your reply.
**Result** 2.6

----------
I'd appreciate it if you could supply protein stability index values for the items below.
assay: protein stability index of a GFP-peptide fusion (yeast GPS) (PSI 1-4); higher = more stable; sorted into four equal gates, so the index is relative within each strain; conditions: pdr5∆
Please respond with just the number, no unit label.

**Query** Supply measured protein stability index of ARDIISHNFQNAIFQME [PCI8] in your reply.
**Result** 2.94

**Query** Supply measured protein stability index of KFANQLHDEYLVSMRYP [RPN3] in your reply.
**Result** 2.9

**Query** Supply measured protein stability index of SGGNNTATIINNESSDD [PCI8] in your reply.
**Result** 2.65

**Query** Supply measured protein stability index of ELPKKLLNLPPFQVSSF [SRB8] in your reply.
**Result** 1.85

**Query** Supply measured protein stability index of GRAGVPMEVMGLMLGEF [RPN11] in your reply.
**Result** 2.12

----------
I'd appreciate it if you could supply protein stability index values for the items below.
experiment: protein stability index of a GFP-peptide fusion (yeast GPS) (PSI 1-4); higher = more stable; sorted into four equal gates, so the index is relative within each strain; settings: pdr5∆
Please respond with just the number, no unit label.

**Query** Supply measured protein stability index of MLGIRSSVKTCFKPMSL [RIP1] in your reply.
**Result** 3.05

**Query** Supply measured protein stability index of SNDNLDLISEILKWVQW [MED1] in your reply.
**Result** 2.92

**Query** Supply measured protein stability index of ALPRKLRRRTASHNVRR [POP1] in your reply.
**Result** 3.06

**Query** Supply measured protein stability index of RSRKTVKAQRPITGASL [RPL24A] in your reply.
**Result** 3.22

**Query** Supply measured protein stability index of SQPKIGYGSNKKTKFLS [RPL32] in your reply.
**Result** 1.52

**Query** Supply measured protein stability index of CGFWQPAWRVWLNFLRG [PRP8] in your reply.
**Result** 2.87

**Query** Supply measured protein stability index of SRDELIRLAKTLKKNNV [RPN10] in your reply.
**Result** 1.81

**Query** Supply measured protein stability index of KIIDNPKSFLKKDQSVL [YMR129W/POM152] in your reply.
**Result** 3.34

**Query** Supply measured protein stability index of DGGLFTLFVRDQDSAVV [QCR2] in your reply.
**Result** 3.16

**Query** Supply measured protein stability index of QDRHVIFLAERRILPKP [RPS7A] in your reply.
**Result** 2.93

----------
I'd appreciate it if you could supply protein stability index values for the items below.
assay: protein stability index of a GFP-peptide fusion (yeast GPS) (PSI 1-4); higher = more stable; sorted into four equal gates, so the index is relative within each strain; settings: doa10∆
Please respond with just the number, no unit label.

**Query** Supply measured protein stability index of LNARMFLKYYGAHKFLD [SIR2] in your reply.
**Result** 1.89

**Query** Supply measured protein stability index of KVAKRTKIKPFIKVVNY [RPL27A] in your reply.
**Result** 2.9

**Query** Supply measured protein stability index of GIKVLPETCLFVSYFGK [YML103C/NUP188] in your reply.
**Result** 2.7

**Query** Supply measured protein stability index of IRKQPDDIINNDEPSHK [SIR2] in your reply.
**Result** 2.91

**Query** Supply measured protein stability index of MARRPARCYRYQKNKPY [RPL10] in your reply.
**Result** 2.17

**Query** Supply measured protein stability index of PKRKRRLPVSEDTNTKP [YOR098C/NUP1] in your reply.
**Result** 3.16

**Query** Supply measured protein stability index of AKNETNSESDSKSDSDS [ITC1] in your reply.
**Result** 3.01

**Query** Supply measured protein stability index of YCDPNTQEIRPVNTGVL [RRP40] in your reply.
**Result** 2.62

**Query** Supply measured protein stability index of ERLAKVNEMNDQLAQEL [NNF1] in your reply.
**Result** 3

**Query** Supply measured protein stability index of TSNASMNTTLGSIGSRK [YAR002W/NUP60] in your reply.
**Result** 3.32

**Query** Supply measured protein stability index of KRRKLDLNNAVQKRDEV [SMC4] in your reply.
**Result** 3.41

**Query** Supply measured protein stability index of LGITGLATDVTTLNEMF [PUP3] in your reply.
**Result** 2.2

**Query** Supply measured protein stability index of AVPLQIVSPQSNKPCMG [RPO21] in your reply.
**Result** 1.72

**Query** Supply measured protein stability index of ETLSIFTNVPLNLEQVT [YJL039C/NUP192] in your reply.
**Result** 2.33

**Query** Supply measured protein stability index of LKQHNQNNLPPNFFLTL [BRR2] in your reply.
**Result** 2.81

**Query** Supply measured protein stability index of DILQITKKPLMVKNVKP [SIR4] in your reply.
**Result** 2.79

**Query** Supply measured protein stability index of REHSLQLFRTNKVQIMI [PRP28] in your reply.
**Result** 1.61

**Query** Supply measured protein stability index of AAKPDNLANFSNEVAMN [SWP82] in your reply.
**Result** 3.32

----------
test: protein stability index of a GFP-peptide fusion (yeast GPS) (PSI 1-4); higher = more stable; sorted into four equal gates, so the index is relative within each strain; settings: pdr5∆
I'd appreciate it if you could supply protein stability index values for the items below.
Please respond with just the number, no unit label.

**Query** Supply measured protein stability index of ITVVPVVAAAEDDDNEQ [QCR6] in your reply.
**Result** 2.04

**Query** Supply measured protein stability index of KVQISKIPILAQHESFL [RPN9] in your reply.
**Result** 2.05

**Query** Supply measured protein stability index of ELVTISWVQPRIISGDQ [RPN9] in your reply.
**Result** 1.96

----------
experiment: protein stability index of a GFP-peptide fusion (yeast GPS) (PSI 1-4); higher = more stable; sorted into four equal gates, so the index is relative within each strain; settings: pdr5∆
metric: protein stability index

**Query** Supply measured protein stability index of NTRKNMSISLESSKALA [DIS3] in your reply.
**Result** 2.24

**Query** Supply measured protein stability index of CAECSSKLSLSRTDAVR [RPC10] in your reply.
**Result** 2.16

**Query** Supply measured protein stability index of QVYDLLKRFPKMSVTCN [BRR2] in your reply.
**Result** 1.09

**Query** Supply measured protein stability index of VDPRIINSENDYSRKQL [NUT1] in your reply.
**Result** 3.38

**Query** Supply measured protein stability index of CVYVPNFNASLQLTTNT [SNM1] in your reply.
**Result** 2.71

**Query** Supply measured protein stability index of KESDLLEETRTTIGDTT [BRN1] in your reply.
**Result** 3.18

**Query** Supply measured protein stability index of LLKKKDDPSKVRLLCRS [YLR335W/NUP2] in your reply.
**Result** 1.85

**Query** Supply measured protein stability index of KSSNDTIEHAADITDGN [YCG1] in your reply.
**Result** 3.16

**Query** Supply measured protein stability index of KKNSSRPMPPIRGPKRR [SMD3] in your reply.
**Result** 1.86

**Query** Supply measured protein stability index of NVLVTMPVAPTMEVKSF [YMR129W/POM152] in your reply.
**Result** 1.62

**Query** Supply measured protein stability index of SKTWETYEMRIHKRYID [RPS20] in your reply.
**Result** 3

**Query** Supply measured protein stability index of LSYISALGMMTRISSQF [RET1] in your reply.
**Result** 1.34

**Query** Supply measured protein stability index of EKPAPVRTHMRNMIIVP [RPS15] in your reply.
**Result** 1.17

**Query** Supply measured protein stability index of PTDSSKILQKRSISKEL [SIR3] in your reply.
**Result** 2.98

**Query** Supply measured protein stability index of KNSTSSMTAVPKPLKFL [RPN1] in your reply.
**Result** 2.31

**Query** Supply measured protein stability index of IMNLITNEPCGAQFSRS [RPN4] in your reply.
**Result** 3.1
